Could you please report measured inhibition for the items listed next?
Assay: growth inhibition of BT084 medulloblastoma cells, cell-based, ICGC_MB145, cisplatin and BGB IC40 combos (AID 1671461);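 further: cells exposed to drugs for 96 hours; 0% = vehicle DMSO and 100% = high DMSO full killing control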
Details: drug combinations, single agent, at 5 µM, stronger effect = higher value
Numbers only, in %.

[[record]]
compound = "O=c1[nH]c(=O)n([C@H]2C[C@H](O)[C@@H](CO)O2)cc1C(F)(F)F"
meas_value = -41.3

[[record]]
compound = "CN(N=O)C(=O)NC1C(O)OC(CO)C(O)C1O (configuration not stated)"
meas_value = 14.7

[[record]]
compound = "COc1c2ccoc2cc2oc(=O)ccc12"
meas_value = -11.1

[[record]]
compound = "COC1C(OC(N)=O)C(O)C(Oc2ccc3c(O)c(NC(=O)c4ccc(O)c(CC=C(C)C)c4)c(=O)oc3c2C)OC1(C)C (configuration not stated)"
meas_value = -18.6

[[record]]
compound = "CCn1nc(C(=O)O)c(=O)c2cc3c(cc21)OCO3"
meas_value = -10.2


// input: 8 compounds below; output: inhibition for each
1. Nc1ncn([C@H]2C[C@H](O)[C@@H](CO)O2)c(=O)n1
2. O=C(CCCCCCC(=O)Nc1ccccc1)NO
3. N=c1ccn2c(n1)O[C@H]1[C@H](O)[C@@H](CO)O[C@H]12
4. CN1CCN(c2c(F)cc3c(=O)c(C(=O)O)cn4c3c2OCN4C)CC1
5. C[C@@H](CN1CC(=O)NC(=O)C1)N1CC(=O)NC(=O)C1
6. CNC1CCCN(c2c(F)cc3c(=O)c(C(=O)O)cn(C4CC4)c3c2OC)C1 (configuration not stated)
7. O=c1cc[nH]c(=O)[nH]1
8. Cc1ccc2nc(N)[nH]c(=O)c2c1Sc1ccncc1

1. -11.6
2. 87.4
3. -28.9
4. -5.93
5. -11.9
6. -9.28
7. -17.3
8. 6.61

Go through the list and state inhibition for each entry.
1. Nc1ccc2cc3ccc(N)cc3nc2c1
2. CC1(C(=O)O)CCC2(C)CCC3(C)C(=CC(=O)C4C5(C)CCC(OC(=O)CCC(=O)O)C(C)(C)C5CCC43C)C2C1 (configuration not stated)
3. O=c1[nH]c(=O)n([C@H]2C[C@H](O)[C@@H](CO)O2)cc1Br
4. CCOC(=O)Nc1ccc(NCc2ccc(F)cc2)nc1N

1. 89.8
2. -40.2
3. -7.12
4. 2.9

All figures here come from PubChem BioAssay.
